Attribution: patent US20240309043A1

Test system: HSD1 enzyme that is expressed in rabbit placenta tissue
Experiment Notes: Inhibition of E1 to E2 conversion in rabbit placenta tissue homogenate
Format: biochemical
Condition Parameters: inhibitor 100 nM, 30 nM estrone, 30 min
Measured Attribute: Rabbit placenta inhibition % @100 nM (%)
// return numeric value only (unit: %, not printed)

State the recorded Rabbit placenta inhibition % @100 nM for this entry: C[C@]12CCC3c4ccccc4CCC3C1[C@H](CCC(=O)Nc1ccccn1)C/C2=N\O (stereo partly drawn)
9

State the recorded Rabbit placenta inhibition % @100 nM for this entry: C[C@]12CCC3c4ccc(Cl)cc4CCC3C1[C@H](CCC(=O)Nc1ccc(N3CCOCC3)cn1)C/C2=N\O (stereo partly drawn)
37

State the recorded Rabbit placenta inhibition % @100 nM for this entry: COc1ccc(NC(=O)CC[C@@H]2C/C(=N\O)[C@@]3(C)CCC4c5ccc(Cl)cc5CCC4C23)nn1 (stereo partly drawn)
42

State the recorded Rabbit placenta inhibition % @100 nM for this entry: C[C@]12CCC3c4ccccc4CCC3C1[C@H](CCC(=O)Nc1cccnn1)C/C2=N\O (stereo partly drawn)
18

State the recorded Rabbit placenta inhibition % @100 nM for this entry: CN(C)C(=O)CC[C@@H]1C/C(=N\O)[C@@]2(C)CCC3c4cccc(F)c4CCC3C12 (stereo partly drawn)
9

State the recorded Rabbit placenta inhibition % @100 nM for this entry: Cc1ccc(NC(=O)CC[C@@H]2C/C(=N\O)[C@@]3(C)CCC4c5ccc(Cl)cc5CCC4C23)nn1 (stereo partly drawn)
56

State the recorded Rabbit placenta inhibition % @100 nM for this entry: C[C@]12CCC3c4ccccc4CCC3C1[C@H](CCC(=O)Nc1ccc(C#N)cn1)C/C2=N\O (stereo partly drawn)
12

State the recorded Rabbit placenta inhibition % @100 nM for this entry: C[C@]12CCC3c4ccccc4CCC3C1[C@H](CCC(=O)Nc1cc(F)ccn1)C/C2=N\O (stereo partly drawn)
12
